system: MCF7; experiment: Cytotoxicity against human MCF7 cells by MTT assay; assay type: functional, cell-based
Listed next: entries and their corresponding IC50.

// below: answered compounds
CCCC(O)(CCC)[C@H](Cc1cn(CC)c2ccccc12)NCc1c2ccccc2cc2ccccc12
> 40 µM
CCCCC(O)(CCCC)[C@H](Cc1cn(C)c2ccccc12)NCc1c2ccccc2cc2ccccc12
> 40 µM
CCCC(O)(CCC)[C@H](Cc1cn(C)c2ccccc12)NCc1c2ccccc2cc2ccccc12
> 40 µM
CC(C)(O)[C@H](Cc1c[nH]c2ccccc12)N(Cc1c2ccccc2cc2ccccc12)C(=O)c1ccccc1
> 40 µM
CC(=O)N(Cc1c2ccccc2cc2ccccc12)[C@H](CO)Cc1c[nH]c2ccccc12
16.1 µM

Req: Consider the compound shown here: CCn1cc(C[C@@H](CO)NCc2c3ccccc3cc3ccccc23)c2ccccc21 What is its recorded IC50?
Resp: 14.9 µM

Req: // query IC50 value for entry CCCCC(O)(CCCC)[C@H](Cc1cn(CC)c2ccccc12)NCc1c2ccccc2cc2ccccc12
Resp: > 40 µM

Req: Bench note: what IC50 did CCCCC(O)(CCCC)[C@H](Cc1c[nH]c2ccccc12)NCc1c2ccccc2cc2ccccc12 show?
Resp: > 40 µM

Req: Please report the recorded IC50 for Cn1cc(C[C@H](NCc2c3ccccc3cc3ccccc23)C(C)(C)O)c2ccccc21 .
Resp: 15.2 µM

###

system: MCF7; assay: Cytotoxicity against human MCF7 cells by MTT assay; type: functional, cell-based
reported_metric: IC50 (µM)
State just the number; it will be interpreted in µM.

Completed entries (count: 2):
Cn1cc(C[C@@H](CO)NCc2c3ccccc3cc3ccccc23)c2ccccc21
16.6
CC(=O)N(Cc1c2ccccc2cc2ccccc12)[C@@H](Cc1c[nH]c2ccccc12)C(C)(C)O
15.6

Req: Would you kindly share the measured IC50 for CCn1cc(C[C@H](NCc2c3ccccc3cc3ccccc23)C(C)(C)O)c2ccccc21 ?
Resp: 13.9

Req: What does the data say about its IC50? Entry: CCCC(O)(CCC)[C@H](Cc1c[nH]c2ccccc12)NCc1c2ccccc2cc2ccccc12
Resp: 23.9

###

test system: MCF7; assay: Cytotoxicity against human MCF7 cells by MTT assay; assay type: functional, cell-based
reported_metric: IC50

CCn1cc(C[C@H](NCc2c3ccccc3cc3ccccc23)C(O)(CC)CC)c2ccccc21
> 40 µM

Req: Form field: reported IC50 of O=C(c1ccccc1)N(Cc1c2ccccc2cc2ccccc12)[C@H](CO)Cc1c[nH]c2ccccc12
Resp: 17.4 µM

Req: Need IC50 of CCC(O)(CC)[C@H](Cc1c[nH]c2ccccc12)NCc1c2ccccc2cc2ccccc12 , thanks.
Resp: 24.3 µM

Req: GET /values?readout=IC50&item= CCC(O)(CC)[C@H](Cc1cn(C)c2ccccc12)NCc1c2ccccc2cc2ccccc12
Resp: > 40 µM

Req: Which IC50 is reported for this compound? CC(C)(O)[C@H](Cc1c[nH]c2ccccc12)NCc1c2ccccc2cc2ccccc12
Resp: 12.5 µM

###

test system: HL-60; test: Cytotoxicity against human HL60 cells by MTT assay; type: functional, cell-based
Threshold-based label: IC50 under 5 µM gives Criterion met, IC50 not under 5 µM gives Criterion not met.

CCCC(O)(CCC)[C@H](Cc1cn(C)c2ccccc12)NCc1c2ccccc2cc2ccccc12
Criterion not met
CC(=O)N(Cc1c2ccccc2cc2ccccc12)[C@@H](Cc1c[nH]c2ccccc12)C(C)(C)O
Criterion not met
CCCCC(O)(CCCC)[C@H](Cc1cn(CC)c2ccccc12)NCc1c2ccccc2cc2ccccc12
Criterion not met
CCC(O)(CC)[C@H](Cc1c[nH]c2ccccc12)NCc1c2ccccc2cc2ccccc12
Criterion not met
CCCC(O)(CCC)[C@H](Cc1cn(CC)c2ccccc12)NCc1c2ccccc2cc2ccccc12
Criterion not met
Cn1cc(C[C@H](NCc2c3ccccc3cc3ccccc23)C(C)(C)O)c2ccccc21
Criterion met
O=C(c1ccccc1)N(Cc1c2ccccc2cc2ccccc12)[C@H](CO)Cc1c[nH]c2ccccc12
Criterion not met
CC(=O)N(Cc1c2ccccc2cc2ccccc12)[C@H](CO)Cc1c[nH]c2ccccc12
Criterion met

Req: Record CCCC(O)(CCC)[C@H](Cc1c[nH]c2ccccc12)NCc1c2ccccc2cc2ccccc12 : is its IC50 strictly below 5 µM?
Resp: Criterion not met

Req: Here's an entry: CCn1cc(C[C@H](NCc2c3ccccc3cc3ccccc23)C(C)(C)O)c2ccccc21 . Is its IC50 below 5 µM?
Resp: Criterion not met

The reported measurements were obtained from ChEMBL document CHEMBL1759950.
